test system: MCF7; assay: Cytotoxicity against human MCF7 cells assessed as cell surviving fraction at 100 uM after 48 hrs by SRB assay; assay type: functional
value_kind: Activity

>  <chemical_string>
C/C(=N\NC(=O)c1sc(N)c(C#N)c1N)c1ccc(S(=O)(=O)N2CCCCC2)cc1

>  <observed_result>
0.406

$$$$
>  <chemical_string>
C/C(=N\NC(=O)c1sc(=S)n(-c2ccccc2)c1N)c1ccc(S(=O)(=O)N2CCCCC2)cc1

>  <observed_result>
0.407

$$$$
>  <chemical_string>
C/C(=N\n1c(N)cc(N)c(C#N)c1=O)c1ccc(S(=O)(=O)N2CCCCC2)cc1

>  <observed_result>
0.394

$$$$
>  <chemical_string>
CCOC(=O)c1c(-c2ccc(Cl)cc2)c(C#N)c(=O)n(/N=C(\C)c2ccc(S(=O)(=O)N3CCCCC3)cc2)c1N

>  <observed_result>
0.553

$$$$
>  <chemical_string>
CCOC(=O)c1c(-c2ccc(C)cc2)c(C#N)c(=O)n(/N=C(\C)c2ccc(S(=O)(=O)N3CCCCC3)cc2)c1N

>  <observed_result>
0.581

$$$$
>  <chemical_string>
C/C(=N\NC(=O)c1sc2c(c1N)CCCC2)c1ccc(S(=O)(=O)N2CCCCC2)cc1

>  <observed_result>
0.558

$$$$
